target: Pro-neuregulin-1, membrane-bound isoform (Homo sapiens); assay: NRG1 binders on small-molecule microarrays, primary screen, psychiatric disease protein project, biochemical, small-molecule microarray, fluorescence 635/667 (AID 1075); conditions: NRG1 binding, 635 nm fluorescence, higher = more signal;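 also: score combines 667 nm spot fluorescence with signal to noise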
Readout Type: composite z-score
Numbers only.

The examples below pair each entry with its known result.
Q. What value of measured composite z-score is listed for `CC(C)C[C@@H]1NC(=O)[C@@H]2C[C@H](C(=O)NCCCCCNC(=O)CS)[C@H](c3cccc(OCCO)c3)N2C1=O` ?
A. 1.35

Q. What value of measured composite z-score is listed for `C=CCOC(=O)[C@H]1[C@@H]2C(=O)O[C@@H](c3ccccc3)[C@@H](c3ccccc3)N2[C@@H](c2ccc(OCCOC(=O)[C@H]3C[C@H]4C(=O)N5CCC[C@H]5C(=O)N4[C@H]3c3cccc(OCCO)c3)cc2)[C@]12C(=O)Nc1ccccc12` ?
A. 1.06

Q. What value of measured composite z-score is listed for `C=CCNC(=O)[C@H]1[C@@H]2C(=O)O[C@@H](c3ccccc3)[C@@H](c3ccccc3)N2[C@@H](c2ccc(OCCO)cc2)[C@]12C(=O)Nc1ccc(C#CCCO)cc12` ?
A. 1.08

Q. What value of measured composite z-score is listed for `CCCNC(=O)[C@@]1(Sc2ccc(C)cc2)CC(=O)N(Cc2cc(C(F)(F)F)cc(C(F)(F)F)c2)[C@@H]1c1ccc(CO)cc1I` ?
A. 1.16

For each of the compounds below, note its composite z-score.
1. CCCCC(=C=CC[C@@H](O)c1ccc(OCCO)cc1)C[C@@H](O)c1cc(Cl)cc(Cl)c1O
2. O=C1c2ccccc2[C@](Cc2ccccc2I)(C(=O)O)[C@H](c2ccc(CO)cc2)N1Cc1ccccc1Cl

A.
1.26
0.955

---

Hi there, I'd appreciate the recorded z-score for every entry that follows.
experiment: osmotic lysis modulators in infected erythrocytes, primary screen, PSAC antagonist project, cell-based, P. falciparum Indochina, OD700, 3 h (AID 1156); conditions: higher = more signal, called active from +8 up or from −8 down
One number for each entry.

The examples below pair each entry with its known result.
Q. What value of measured z-score is listed for `O=C(O)[C@H]1C[C@H]2C(=O)N[C@@H](Cc3ccccc3)C(=O)N2[C@H]1c1ccc(O)cc1` ?
A. -7.14

Q. What value of measured z-score is listed for `O=C(NCc1ccccc1)[C@@H]1c2ccccc2C(=O)N(Cc2ccccc2Cl)[C@H]1c1ccc(CO)cc1` ?
A. -0.0527

Q. What value of measured z-score is listed for `CC(C)CNC(=O)[C@@H]1c2ccccc2C(=O)N(Cc2ccc(OC(F)(F)F)cc2)[C@H]1c1ccc(CO)cc1` ?
A. 0.209

For each of the compounds below, note its z-score.
1. COc1ccc([Si](C)(C)[C@H]2[C@H](CC(=O)N3Cc4ccccc4C[C@H]3CO)O[C@@]3(C(=O)N(Cc4cccc(N5C(=O)COc6ccccc65)c4)c4ccccc43)[C@@H]2C)cc1
2. CC(CO)N1C(=O)[C@@H]2C3C(=O)OCCC/C=C\[C@H]3OC23C=CCN(Cc2ccccc2)C(=O)[C@@H]13 (some centres undefined)
3. CC(C)(C)OC(=O)CC[C@@]1(C(=O)N2CCOCC2)N=C(c2ccc(OCCCO)cc2)O[C@@H]1c1ccccc1
4. O=C(NCC(F)(F)F)[C@@H]1c2ccccc2C(=O)N(C2Cc3ccccc3C2)[C@H]1c1ccc(CO)cc1

A.
1: 1.69; 2: -0.513; 3: 0.794; 4: 1.8

For each of the compounds below, note its z-score.
1. C=CCC(OC(C)=O)[C@@H]1[C@@H](N(Cc2cccc3ccccc23)C(=O)c2cccc3ccccc23)c2cc(OCCCO)ccc2N1C(=O)Cc1ccc(OC)cc1 (some centres undefined)
2. COCCOC(=O)N1C(=O)[C@@]2(c3cc(C#CC4(O)CCCCCC4)ccc31)[C@H](c1ccc(O)cc1)N1[C@H](c3ccccc3)[C@H](c3ccccc3)OC(=O)[C@H]1[C@@H]2C(N)=O
3. C=C(COC)C(=O)CC[C@H](OC(=O)c1ccccc1-c1ccccc1C(=O)O)c1ccccc1OCCO
4. C=CCNC(=O)[C@@H]1[C@H]2C(=O)O[C@H](c3ccccc3)[C@H](c3ccccc3)N2[C@H](c2ccc(O)cc2)[C@@]12C(=O)Nc1ccc(C#Cc3ccc(OC)cc3)cc12
5. C=CCN1C(=O)[C@]2(O[C@H](CCn3cc([C@H](O)c4ccccc4)nn3)[C@@H]([Si](C)(C)c3ccc(OC)cc3)[C@@H]2C)c2cc(N3CCOC3=O)ccc21
6. C=C(/C(=C/C[C@H](OC(=O)c1ccncc1)c1cccc(OCCO)c1)c1cc(C(=O)OC)ccc1OC)C(C)C
7. COC(=O)c1c(CC[C@@H](CO)NC(=O)Nc2ccc(OC)cc2)oc(C(=O)Cc2ccccc2)c1C(=O)OC

A.
1. -0.0889
2. -1.54
3. 2.51
4. 0.375
5. 1.03
6. 1.66
7. 0.681

Ref: PubChem BioAssay
